B1: Probable E3 ubiquitin-protein ligase MID2, residues 191 to 235; numbered along this chain, Q9UJV3 (parent)
chain: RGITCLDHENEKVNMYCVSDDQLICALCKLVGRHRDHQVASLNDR

# Variants of: B1
# assay_remarks: abundance fitness (aPCA) (normalised: wild type 0, dead -1); higher = more abundant; growth selection in yeast, the domain comes from the species named
# assay_context: Homo sapiens
Returns one of t or f; t when abundance fitness is >= -0.2.

D7S: t

# bool: abundance fitness of `C25Y` >= -0.2
f

Try this variant too: `G32R`
f

Try this variant too: `K12C`
f

Try this variant too: `L27D`
t

Try this variant too: `D44K`
t
